- ASSAY REMARKS: probe aWnt5a binding to arrayed compounds – biochemical, biotinylated probe, 635/667 nm fluorescence, primary screen (AID 1113);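 also: score merges 667 nm fluorescence intensity with signal-to-noise per printed feature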
- CONDITION DETAILS: small-molecule microarray, higher = more signal
Assignment: determine reported composite z-score for the given molecules.

Please supply the value of reported composite z-score for the item COCCOC(=O)N1C(=O)[C@@]2(c3cc(C#CC4(O)CCCCCC4)ccc31)[C@H](C(=O)N1CCc3cc(OC)c(OC)cc3C1)[C@H]1C(=O)O[C@H](c3ccccc3)[C@H](c3ccccc3)N1[C@@H]2c1ccc(OCCO)cc1
-0.0685

Read off the recorded composite z-score for C=C(COC)C(=O)CC[C@@H](OC(C)=O)c1cccc(OCCO)c1
-0.0403

Item COc1cccc(C)c1NC(=O)O[C@H]1[C@H](OC(=O)Nc2ccccc2-c2ccccc2)[C@H](OC(=O)Nc2ccccc2-c2ccccc2)[C@@H](OC)O[C@@H]1CO : provide composite z-score
0.0304

Specify reported composite z-score for the molecule shown: CS(=O)(=O)CCOC(=O)C1=CC(CCCO)=CC(c2ccc(CN3CCCC3)cc2)N(Cc2sc3ccccc3c2Cl)C=C1C(=O)OCCS(C)(=O)=O (stereo not given)
-0.0297

// fetch composite z-score given entry COC(=O)[C@@]1(Cc2ccc(OC)cc2)[C@H]2c3cc(C(=O)N4CCCC4)n(CCc4c[nH]c5ccc(OC)cc45)c3C[C@H]2CN1C(=O)c1ccccc1
0.155

Reference for the values: PubChem BioAssay
